Biological target: PI3Kβ (Homo sapiens (Human))
Assay: In vitro enzyme inhibition assay (Kinase Glo based enzyme activity assay)
Format: biochemical
Conditions: Test (a), human recombinant enzyme; read-out: PI3Kβ inhibition, IC50
Lab note: anything with IC50 below 9 nM is marked fulfilled; values at 9 nM or higher are marked not fulfilled.

Molecule	Class
CC(Nc1cccc(C#N)c1)c1cc(C(=O)N(C)C)cc2c(=O)cc(N3CCOCC3)oc12 (stereo not drawn) [Example 3.18]	not fulfilled
CCNC(=O)c1cc(C(C)Nc2cc(F)cc(F)c2)c2oc(N3CCOCC3)cc(=O)c2c1 (stereo not drawn) [Example 4.17]	fulfilled
CC(Nc1cc(F)cc(F)c1)c1cc(C(=O)N2CCCCC2)cc2c(=O)cc(N3CCOCC3)oc12 (stereo not drawn) [Example 4.10]	fulfilled
COc1ccc(C#N)cc1NC(C)c1cc(C(=O)N(C)C)cc2c(=O)cc(N3CCOCC3)oc12 (stereo not drawn) [Example 3.25]	not fulfilled
COc1ccc(F)cc1NC(C)c1cc(C(=O)N(C)C)cc2c(=O)cc(N3CCOCC3)oc12 (stereo not drawn) [Example 3.24]	fulfilled
CC(Nc1ccc(F)cc1)c1cc(C(=O)N(C)C)cc2c(=O)cc(N3CCOCC3)oc12 (stereo not drawn) [Example 2.01]	fulfilled
CC(Nc1ccc(F)c(F)c1)c1cc(C(=O)N(C)C)cc2c(=O)cc(N3CCOCC3)oc12 (single isomer, unassigned) [Example 3.03b]	fulfilled
COCCCNC(=O)c1cc(C(C)Nc2cc(F)cc(F)c2)c2oc(N3CCOCC3)cc(=O)c2c1 (stereo not drawn) [Example 4.19]	not fulfilled
CC(Nc1cc(F)cc(F)c1)c1cc(C(=O)N2CCSCC2)cc2c(=O)cc(N3CCOCC3)oc12 (stereo not drawn) [Example 4.05]	fulfilled
CC(Nc1cc(F)cc(F)c1)c1cc(C(=O)N2CCCC2)cc2c(=O)cc(N3CCOCC3)oc12 (stereo not drawn) [Example 4.02]	fulfilled

###

Target: PI3Kβ (Homo sapiens (Human), UniProt P42338)
Sequence (P42338 whole entry): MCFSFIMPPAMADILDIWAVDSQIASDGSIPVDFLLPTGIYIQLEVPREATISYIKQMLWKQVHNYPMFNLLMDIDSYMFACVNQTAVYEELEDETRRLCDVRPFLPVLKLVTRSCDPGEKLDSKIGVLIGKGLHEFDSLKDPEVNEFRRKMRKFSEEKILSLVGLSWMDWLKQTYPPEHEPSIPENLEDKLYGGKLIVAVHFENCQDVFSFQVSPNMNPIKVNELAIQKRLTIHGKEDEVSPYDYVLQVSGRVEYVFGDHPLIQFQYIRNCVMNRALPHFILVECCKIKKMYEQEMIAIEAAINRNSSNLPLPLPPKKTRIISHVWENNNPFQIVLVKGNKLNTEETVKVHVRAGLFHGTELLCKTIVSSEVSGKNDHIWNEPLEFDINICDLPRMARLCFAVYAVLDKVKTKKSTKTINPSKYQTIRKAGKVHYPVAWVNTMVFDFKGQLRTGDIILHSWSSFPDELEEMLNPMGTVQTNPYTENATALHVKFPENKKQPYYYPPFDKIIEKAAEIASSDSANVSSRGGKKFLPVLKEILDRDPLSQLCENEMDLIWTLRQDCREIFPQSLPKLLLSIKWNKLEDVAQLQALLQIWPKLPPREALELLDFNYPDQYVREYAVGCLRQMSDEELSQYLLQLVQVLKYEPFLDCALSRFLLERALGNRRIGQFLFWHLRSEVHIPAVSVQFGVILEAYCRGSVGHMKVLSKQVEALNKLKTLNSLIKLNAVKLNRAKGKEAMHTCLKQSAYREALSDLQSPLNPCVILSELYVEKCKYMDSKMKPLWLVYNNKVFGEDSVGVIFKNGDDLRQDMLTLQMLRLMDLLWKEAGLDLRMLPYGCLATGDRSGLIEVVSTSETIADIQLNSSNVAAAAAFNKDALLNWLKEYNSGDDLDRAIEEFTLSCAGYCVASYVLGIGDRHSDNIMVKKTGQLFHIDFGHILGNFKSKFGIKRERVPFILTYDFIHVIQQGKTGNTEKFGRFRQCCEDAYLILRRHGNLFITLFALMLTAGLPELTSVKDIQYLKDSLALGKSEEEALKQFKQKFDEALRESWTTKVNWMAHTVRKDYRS
Sequence (P27986 whole entry partner): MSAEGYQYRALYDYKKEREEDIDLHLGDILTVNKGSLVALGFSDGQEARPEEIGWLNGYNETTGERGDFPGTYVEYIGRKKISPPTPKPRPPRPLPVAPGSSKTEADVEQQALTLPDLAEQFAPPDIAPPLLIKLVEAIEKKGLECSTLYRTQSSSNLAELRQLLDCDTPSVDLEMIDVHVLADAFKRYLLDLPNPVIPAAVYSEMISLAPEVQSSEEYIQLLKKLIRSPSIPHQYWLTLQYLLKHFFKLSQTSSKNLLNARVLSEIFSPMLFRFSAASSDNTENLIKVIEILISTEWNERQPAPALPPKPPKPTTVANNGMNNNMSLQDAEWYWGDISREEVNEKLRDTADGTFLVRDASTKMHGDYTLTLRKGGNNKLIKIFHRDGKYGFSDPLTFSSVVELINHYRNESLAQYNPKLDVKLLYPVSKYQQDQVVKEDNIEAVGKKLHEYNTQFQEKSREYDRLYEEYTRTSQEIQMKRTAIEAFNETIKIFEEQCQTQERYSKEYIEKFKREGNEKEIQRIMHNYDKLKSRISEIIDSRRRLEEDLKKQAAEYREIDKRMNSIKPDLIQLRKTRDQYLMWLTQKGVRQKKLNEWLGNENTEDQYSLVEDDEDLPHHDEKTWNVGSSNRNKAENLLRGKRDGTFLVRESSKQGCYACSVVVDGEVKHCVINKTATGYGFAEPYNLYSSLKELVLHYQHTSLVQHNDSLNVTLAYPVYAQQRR
Assay: In vitro enzyme inhibition assay (Kinase Glo based enzyme activity assay)
Format: biochemical
Conditions: Test (a), human recombinant enzyme; read-out: PI3Kβ inhibition, IC50
Protocol: (a) In Vitro Enzyme Inhibition Assay The inhibition of PI3Kβ, PI3Kα, PI3Kγ and PI3Kδ was evaluated in a Kinase Glo based enzyme activity assay using human recombinant enzymes. The assay measures depletion of ATP after incubation with enzyme, PIP2 and ATP plus compound. ATP at the end of the reaction is detected by addition of Kinase Glo reagent, in this the Ultra Glo™ luciferase (Promega) uses the ATP as a substrate to catalyze the mono-oxygenation of luciferin and the generation of light. […]
pIC50: −log10 of the molar value.
Label T when pIC50 >= 8; otherwise F.

Compound	Class
CC(Nc1cc(F)cc(F)c1)c1cc(C(=O)N(C)C)cc2c(=O)cc(N3CCOC[C@@H]3C)oc12 (stereo partly shown)	F
CC(Nc1cccc(Cl)c1Cl)c1cc(C(=O)N(C)C)cc2c(=O)cc(N3CCOCC3)oc12 (stereo not shown)	T
CC(Nc1cccc(F)c1C#N)c1cc(C(=O)N(C)C)cc2c(=O)cc(N3CCOCC3)oc12 (stereo not shown)	F
CC(Nc1ccc(F)c(F)c1)c1cc(C(=O)N(C)C)cc2c(=O)cc(N3CCOCC3)oc12 (single isomer, unassigned) [Example 3.03a]	F
CC(Nc1cc(F)cc(F)c1)c1cc(C(=O)N(C)C)cc2c(=O)cc(N3CCO[C@@H](C)C3)oc12 (single isomer, unassigned) [Example 9.02a]	F

###

Target: PI3Kβ (Homo sapiens (Human))
Experiment: In vitro enzyme inhibition assay (Kinase Glo based enzyme activity assay)
Format: biochemical
Details: Test (a), human recombinant enzyme; read-out: PI3Kβ inhibition, IC50
Listed next: entries and their corresponding IC50.

Compound	Result Units	IC50
CC(Nc1cc(Cl)cc(Cl)c1)c1cc(C(=O)N(C)C)cc2c(=O)cc(N3CCOCC3)oc12 (stereo not shown)	nM	5
CC(Nc1ccccc1)c1cc(C(=O)NCCN(C)C)cc2c(=O)cc(N3CCOCC3)oc12 (stereo not shown)	nM	2
CC(Nc1cc(F)cc(F)c1)c1cc(C(=O)N2CCC(O)CC2)cc2c(=O)cc(N3CCOCC3)oc12 (stereo not shown)	nM	3
CC(Nc1cc(F)cc(F)c1)c1cc(C(=O)N(C)C)cc2c(=O)cc(N3CCO[C@H](C)C3)oc12 (single isomer, unassigned) [Example 9.01b]	nM	3
CCN(C)C(=O)c1cc(C(C)Nc2cc(F)cc(F)c2)c2oc(N3CCOCC3)cc(=O)c2c1 (stereo not shown)	nM	2
CC(Nc1cccc(F)c1F)c1cc(C(=O)N(C)C)cc2c(=O)cc(N3CCOCC3)oc12 (stereo not shown)	nM	4
Cc1cc(C#N)cc(NC(C)c2cc(C(=O)N(C)C)cc3c(=O)cc(N4CCOCC4)oc23)c1 (stereo not shown)	nM	13

###

Target: PI3Kβ (Homo sapiens (Human))
Assay: In vitro enzyme inhibition assay (Kinase Glo based enzyme activity assay)
Format: biochemical
Conditions: Test (a), human recombinant enzyme; read-out: PI3Kβ inhibition, IC50
Lab note: anything with IC50 below 4 nM is marked class 1; values at 4 nM or higher are marked class 0.

Molecule	Class
CC(c1cc(C(=O)N2CCC(O)CC2)cc2c(=O)cc(N3CCOCC3)oc12)N(C)c1cc(F)cc(F)c1 (single isomer, unassigned) [Example 7.01a]	class 0
CC(c1cc(C(=O)N(C)C)cc2c(=O)cc(N3CCOCC3)oc12)N(C)c1cc(F)cc(Cl)c1 (centres unmarked) [Example 3.37]	class 0
CC(Nc1cccc(Cl)c1F)c1cc(C(=O)N(C)C)cc2c(=O)cc(N3CCOCC3)oc12 (single isomer, unassigned) [Example 3.04b]	class 1
CC(c1cc(C(=O)N(C)CCO)cc2c(=O)cc(N3CCO[C@H](C)C3)oc12)N(C)c1cc(F)cc(F)c1 (some centres unmarked) [Example 10.02]	class 0
CC(Nc1cccc(F)c1)c1cc(C(=O)NCCN(C)C)cc2c(=O)cc(N3CCOCC3)oc12 (centres unmarked) [Example 1.01]	class 1

###

Molecular target: PI3Kβ (Homo sapiens (Human))
Assay: In vitro enzyme inhibition assay (Kinase Glo based enzyme activity assay)
Format: biochemical
Settings: Test (a), human recombinant enzyme; read-out: PI3Kβ inhibition, IC50
Description: (a) In Vitro Enzyme Inhibition Assay The inhibition of PI3Kβ, PI3Kα, PI3Kγ and PI3Kδ was evaluated in a Kinase Glo based enzyme activity assay using human recombinant enzymes. The assay measures depletion of ATP after incubation with enzyme, PIP2 and ATP plus compound. ATP at the end of the reaction is detected by addition of Kinase Glo reagent, in this the Ultra Glo™ luciferase (Promega) uses the ATP as a substrate to catalyze the mono-oxygenation of luciferin and the generation of light. […]
pIC50: −log10 of the molar value.
Measured Parameter: pIC50

Molecule	Reported Result
CC(c1cc(C(=O)N2CCC[C@@H]2CO)cc2c(=O)cc(N3CCOCC3)oc12)N(C)c1cc(F)cc(F)c1 (some centres unmarked)	8.15
CC(Nc1cc(F)cc(F)c1F)c1cc(C(=O)N(C)C)cc2c(=O)cc(N3CCOCC3)oc12 (single isomer, unassigned; (-)) [Example 3.13b]	8.40
CC(Nc1cc(F)cc(F)c1)c1cc(C(=O)N2CCNCC2)cc2c(=O)cc(N3CCOCC3)oc12 (centres unmarked)	8.40
CC(Nc1cc(F)cc(F)c1)c1cc(C(=O)N2CCCCCC2)cc2c(=O)cc(N3CCOCC3)oc12 (centres unmarked)	8.40
COC1CCN(C(=O)c2cc(C(C)Nc3cc(F)cc(F)c3)c3oc(N4CCOCC4)cc(=O)c3c2)CC1 (centres unmarked)	8.40
CC(Nc1cc(F)cc(F)c1)c1cc(C(=O)N2CC[C@H](O)C2)cc2c(=O)cc(N3CCOCC3)oc12 (single isomer, unassigned)	8.15
CC(Nc1cc(F)cc(F)c1)c1cc(C(=O)NCC2CC2)cc2c(=O)cc(N3CCOCC3)oc12 (centres unmarked)	8.52
CC(c1cc(C(=O)N(C)C)cc2c(=O)cc(N3CCOCC3)oc12)N(C)c1ccc(F)c(Cl)c1 (centres unmarked)	7.96
CC(c1cc(C(=O)N2CCCC2)cc2c(=O)cc(N3CCOCC3)oc12)N(C)c1cc(F)cc(F)c1 (centres unmarked)	8.30
CC(Nc1ccc(F)c(Cl)c1)c1cc(C(=O)N2CCC(O)CC2)cc2c(=O)cc(N3CCOCC3)oc12 (centres unmarked)	8.22
CNC(=O)c1cc(C(C)Nc2cc(F)cc(F)c2)c2oc(N3CCOCC3)cc(=O)c2c1 (centres unmarked)	8.40
CC(Nc1c(F)ccc(Cl)c1F)c1cc(C(=O)N(C)C)cc2c(=O)cc(N3CCOCC3)oc12 (centres unmarked)	8.10
CC(Nc1cc(F)cc(F)c1)c1cc(C(=O)N2CC(O)C2)cc2c(=O)cc(N3CCOCC3)oc12 (centres unmarked)	8.40
CC(Nc1cc(F)cc(F)c1)c1cc(C(=O)NCCF)cc2c(=O)cc(N3CCOCC3)oc12 (centres unmarked)	8.40
